Data origin: patent US20050142192A1

test: ascending single-dose pharmacokinetic study in healthy subjects; format: in vivo, human; settings: human, plasma, po, 4000 mg, 4000 mg Oral, fasting, single administration, healthy subjects, mean ± SD
OBSERVATION_TYPE: Tmax (h)
Numbers only here, please. The scale is h.

Ask | Give its Tmax value. Item: "O=c1c2c(c1=O)N(CCP(=O)(O)O)CCCN2"
Reply | 2.6

* * *

assay: ascending single-dose pharmacokinetic study in healthy subjects; type: in vivo, human; conditions: human, plasma, po, 2000 mg, 2000 mg Oral, fasting (elderly), single administration, mean ± SD
OBSERVATION_TYPE: Tmax (h)
Numbers only here, please. The scale is h.

Ask | Give its Tmax value. Item: "O=c1c2c(c1=O)N(CCP(=O)(O)O)CCCN2"
Reply | 1.25

* * *

assay: ascending multiple-dose pharmacokinetic study in healthy subjects; type: in vivo; settings: human, plasma, po, 800 mg, Multiple dose administration (day 14), 800 mg q 12 h Oral, fasting, mean ± SD
OBSERVATION_TYPE: Tmax (h)
Numbers only here, please. The scale is h.

Ask | Give its Tmax value. Item: "O=c1c2c(c1=O)N(CCP(=O)(O)O)CCCN2"
Reply | 1.4

* * *

experiment: ascending multiple-dose pharmacokinetic study in healthy subjects; format: in vivo; settings: human, plasma, po, 1600 mg, Single dose administration, 1600 mg Oral, fasting, mean ± SD, read-out: T½ (converted)
OBSERVATION_TYPE: half-life
Write down the value, and be sure its unit follows.

Ask | Give its half-life value. Item: "O=c1c2c(c1=O)N(CCP(=O)(O)O)CCCN2"
Reply | 6.9 h

* * *

experiment: ascending single-dose pharmacokinetic study in healthy subjects; format: in vivo, human; conditions: human, plasma, po, 500 mg, 500 mg Oral, fasting, single administration, healthy subjects, mean ± SD
OBSERVATION_TYPE: Tmax (h)
Numbers only here, please. The scale is h.

Ask | Give its Tmax value. Item: "O=c1c2c(c1=O)N(CCP(=O)(O)O)CCCN2"
Reply | 1.9

* * *

test: ascending multiple-dose pharmacokinetic study in healthy subjects; assay type: in vivo; conditions: human, plasma, po, 200 mg, Single dose administration, 200 mg Oral, fasting, mean ± SD
OBSERVATION_TYPE: Tmax (h)
Numbers only here, please. The scale is h.

Ask | Give its Tmax value. Item: "O=c1c2c(c1=O)N(CCP(=O)(O)O)CCCN2"
Reply | 1.3

* * *

assay: ascending multiple-dose pharmacokinetic study in healthy subjects; assay type: in vivo; settings: human, plasma, po, 400 mg, Multiple dose administration (day 14), 400 mg q 12 h Oral, fasting, mean ± SD, read-out: T½ (converted)
OBSERVATION_TYPE: half-life (h)
Numbers only here, please. The scale is h.

Ask | Give its half-life value. Item: "O=c1c2c(c1=O)N(CCP(=O)(O)O)CCCN2"
Reply | 11.9

* * *

test: ascending multiple-dose pharmacokinetic study in healthy subjects; format: in vivo; settings: human, plasma, po, 400 mg, Single dose administration, 400 mg Oral, fasting, mean ± SD, read-out: T½ (converted)
OBSERVATION_TYPE: half-life (h)
Numbers only here, please. The scale is h.

Ask | Give its half-life value. Item: "O=c1c2c(c1=O)N(CCP(=O)(O)O)CCCN2"
Reply | 4.5

* * *

assay: ascending single-dose pharmacokinetic study in healthy subjects; assay type: in vivo, human; conditions: human, plasma, po, 2000 mg, 2000 mg Oral, fasting (elderly), single administration, mean ± SD
OBSERVATION_TYPE: Cmax (ng/mL)
Numbers only here, please. The scale is ng/mL.

Ask | Give its Cmax value. Item: "O=c1c2c(c1=O)N(CCP(=O)(O)O)CCCN2"
Reply | 1610

* * *

experiment: ascending multiple-dose pharmacokinetic study in healthy subjects; assay type: in vivo; details: human, plasma, po, 1600 mg, Multiple dose administration (day 14), 1600 mg q 12 h Oral, fasting, mean ± SD
OBSERVATION_TYPE: Cmax (ng/mL)
Numbers only here, please. The scale is ng/mL.

Ask | Give its Cmax value. Item: "O=c1c2c(c1=O)N(CCP(=O)(O)O)CCCN2"
Reply | 1510

* * *

Test: ascending single-dose pharmacokinetic study in healthy subjects
Type: in vivo, human
Settings: human, plasma, po, 2000 mg, 2000 mg Oral, fasting, single administration, healthy adult subjects, mean ± SD
Experimental: A study was conducted as an ascending single-dose tolerance study with fasting administration of 500, 1000, 2000, and 4000 mg oral doses. In each cohort, 8 subjects received either placebo (2 subjects) or the prescribed dose of 2-(8,9-dioxo-2,6-diazabicyclo[5.2.0]non-1(7)-en-2-yl)ethyl]phosphonic acid (6 subjects). Subjects in the fasting 1000-mg cohort were crossed over to receive a 1000-mg postprandial dose in study period 2. […]
OBSERVATION_TYPE: Tmax (h)
Numbers only here, please. The scale is h.

Ask | Give its Tmax value. Item: "O=c1c2c(c1=O)N(CCP(=O)(O)O)CCCN2"
Reply | 1.42

* * *

assay: ascending single-dose pharmacokinetic study in healthy subjects; type: in vivo, human; details: human, plasma, po, 1000 mg, 1000 mg Oral, fasting, single administration, healthy subjects, t = 0 to ∞, mean ± SD
OBSERVATION_TYPE: AUC
Write down the value, and be sure its unit follows.

Ask | Give its AUC value. Item: "O=c1c2c(c1=O)N(CCP(=O)(O)O)CCCN2"
Reply | 5130 ng·h/mL

* * *

experiment: ascending single-dose pharmacokinetic study in healthy subjects; format: in vivo, human; details: human, plasma, intravenous, 100 mg, 100 mg 1-hour, infusion, healthy subjects, mean ± SD
OBSERVATION_TYPE: Tmax (min)
Numbers only here, please. The scale is min.

Ask | Give its Tmax value. Item: "O=c1c2c(c1=O)N(CCP(=O)(O)O)CCCN2"
Reply | 57

* * *

assay: ascending single-dose pharmacokinetic study in healthy subjects; assay type: in vivo, human; conditions: human, plasma, po, all cohorts, oral, fasting; estimates not always reliable; read-out: mean t1/2
OBSERVATION_TYPE: half-life

Ask | Give its half-life value. Item: "O=c1c2c(c1=O)N(CCP(=O)(O)O)CCCN2"
Reply | 6 to 16 h

* * *

assay: ascending multiple-dose pharmacokinetic study in healthy subjects; type: in vivo; settings: human, plasma, po, 400 mg, Multiple dose administration (day 14), 400 mg q 12 h Oral, fasting, mean ± SD
OBSERVATION_TYPE: Tmax (h)
Numbers only here, please. The scale is h.

Ask | Give its Tmax value. Item: "O=c1c2c(c1=O)N(CCP(=O)(O)O)CCCN2"
Reply | 1.6

* * *

experiment: ascending single-dose pharmacokinetic study in healthy subjects; format: in vivo, human; conditions: human, plasma, po, 4000 mg, 4000 mg Oral, fasting, single administration, healthy subjects, t = 0 to ∞, mean ± SD
OBSERVATION_TYPE: AUC (ng·h/mL)
Numbers only here, please. The scale is ng·h/mL.

Ask | Give its AUC value. Item: "O=c1c2c(c1=O)N(CCP(=O)(O)O)CCCN2"
Reply | 8980

* * *

assay: animal absorption study, oral bioavailability in rats; conditions: rat, in vivo, 100 mg/kg
OBSERVATION_TYPE: bioavailability

Ask | Give its bioavailability value. Item: "O=c1c2c(c1=O)N(CCP(=O)(O)O)CCCN2"
Reply | ~1%

* * *

test: ascending multiple-dose pharmacokinetic study in healthy subjects; assay type: in vivo; details: human, plasma, po, 800 mg, Single dose administration, 800 mg Oral, fasting, mean ± SD
OBSERVATION_TYPE: Cmax (ng/mL)
Numbers only here, please. The scale is ng/mL.

Ask | Give its Cmax value. Item: "O=c1c2c(c1=O)N(CCP(=O)(O)O)CCCN2"
Reply | 715
